# Tested on: SNB-78 CNS
# protocol text: NCI tumour cell line growth inhibition, 48 h
Hi, to clarify the labels: true covers TGI from 30 µM upward, false covers anything below 30 µM.

Does TGI meet or surpass 30 µM for COC(=O)C(=O)C(CC(=O)Nc1cccc(C(F)(F)F)c1)C(=O)OC (centres undefined) ?
true

Does TGI meet or surpass 30 µM for `CCN(CC)CCNC(=O)c1nn(-c2ccc(Cl)cc2)c2c1CCc1cc(OC)ccc1-2` ?
false

Does TGI meet or surpass 30 µM for Brc1ccc(C2SCc3nc4ccccc4n32)cc1 (centres undefined) ?
false

Does TGI meet or surpass 30 µM for O=C(CC1C(=O)Nc2ccccc2S1(=O)=O)Nc1cccc(Cl)c1 (centres undefined) ?
true

Does TGI meet or surpass 30 µM for COC(=O)C1C(O)C(C)C(O)OC1C(C)C(O)C(C)/C=C\C=C(/C)C(=O)Nc1c(C)c(OC(C)=O)c2c(c1O)C(=O)C(C)=C1OCOC(/C(C)=C/C(C)=O)=C12 (centres undefined) ?
false

Does TGI meet or surpass 30 µM for `CC1=C/C(=C2/N=C(N(C)C)SS2)C(C)=N1` ?
true

Does TGI meet or surpass 30 µM for Clc1ccc(C2=NOC3C4CCC(C4)C23)cc1 (centres undefined) ?
true

Does TGI meet or surpass 30 µM for `CCN(CC)CC(=O)Nc1ccc2c(c1)C(=O)c1ccc(NC(=O)CN(CC)CC)cc1C2=O` ?
true

Does TGI meet or surpass 30 µM for `CCCCCCCCCCCCCCNCC(OCC)OCC` ?
true

Does TGI meet or surpass 30 µM for `O=C(NC(=O)c1cc2cc(Br)cc(Br)c2oc1=O)Oc1ccccc1` ?
true

Does TGI meet or surpass 30 µM for `COc1cc2ccc(CC(N)=O)cc2cc1OC` ?
true

Does TGI meet or surpass 30 µM for `Cc1cc(NS(=O)(=O)c2ccc(Nc3c4ccccc4nc4c(C(=O)Nc5ccc(S(=O)(=O)N=C(N)N)cc5)ccc(Cl)c34)cc2)no1` ?
true

Does TGI meet or surpass 30 µM for CC12CC(Sc3ccccc3N1)c1ccccc1O2 (centres undefined) ?
true
